Reported GI50 values are given for each entry in this list.
- Test system: RPMI-8226
- measurement.description: NCI tumour cell line growth inhibition, 48 h
Calls of active or inactive are those of the source. Cut-off read from the data, not from the text of the source: active = GI50 up to about 1.1 µM and inactive = higher.

The examples below pair each entry with its known result.
**Q:** Please report the recorded GI50 for CN1CCC2(CC1)C(=O)N(NC(N)=O)C(=O)C2c1ccccc1 (stereo not given) .
**A:** > 100 µM (inactive)

**Q:** Please report the recorded GI50 for CSc1nc(C)cc(=O)n1C1OC(COC(C)=O)C(OC(C)=O)C(OC(C)=O)C1OC(C)=O (stereo not given) .
**A:** > 100 µM (inactive)

Next:
**Q:** Please report the recorded GI50 for "Cc1cc(N(CCOS(C)(=O)=O)CCOS(C)(=O)=O)ccc1/C=N/c1ccc(-c2csc(-c3ccccc3)n2)c(Cl)c1" .
**A:** 11.2 µM (inactive)

**Q:** Please report the recorded GI50 for "CCOC(=O)C(=O)CC(=O)C1=C(c2ccccc2OC)CC(c2cccs2)=CC1=O" .
**A:** 65.8 µM (inactive)

**Q:** Please report the recorded GI50 for "COc1cc2oc(-c3ccc(O)cc3)cc(=O)c2c(OC)c1OC" .
**A:** > 100 µM (inactive)

Hello, the source for this data is ChEMBL document CHEMBL1201862, in case you need it.
